All values here come from paper PMC9482650.

target: SNX27, Q96L92; assay: holdup assay; design: key: below the threshold = too weak to quantify, mostly under pKd 3.1 to 4; conditions: plain residues with an end cap or a label only (N-terminal biotin on a linker: ado-ado)
measured-property: pKd
Please give the numeric answer without any surrounding text.

binder: IPLDGETEEL [MYOZ1, Q9NP98]
pKd: 3.69

Okay, now this binder:
input: Name the reported pKd value associated with the binder PDGQCTVTEV [RNF146, Q9NTX7]
output: 5.19
